# System under test: recombinant human KRAS^G12D protein (Homo sapiens, UniProt P01116, G12D)
# Sequence (P01116 1-188 isoform P01116-2 G12D): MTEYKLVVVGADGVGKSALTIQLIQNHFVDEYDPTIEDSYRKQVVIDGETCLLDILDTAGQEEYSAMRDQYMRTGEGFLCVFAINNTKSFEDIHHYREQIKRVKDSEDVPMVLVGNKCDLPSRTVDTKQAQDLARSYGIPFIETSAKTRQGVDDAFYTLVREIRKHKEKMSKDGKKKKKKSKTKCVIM
# Procedure summary: Temperature-dependent Fluorescence (TdF) KRAS^G12D protein binding assay
# Run parameters: 6 μM KRAS^G12D Protein, 10 μM compound, Sypro Orange; Kd calculated from fluorescent shift
Reported metric: Kd

A selection of reference data follows.
CCc1cccc2cc(O)cc(-c3cc4nc(OC[C@@]56CCCN5C[C@H](F)C6)nc(N5CC6CCC(C5)N6)c4c(C)n3)c12 [Compound 121] = ≤ 500 nM
C#Cc1c(F)ccc2cc(O)cc(-c3cc4nc(OC[C@@]56CCCN5C[C@H](F)C6)nc(N5CC6CCC(C5)N6)c4c(C)n3)c12 [Compound 131] = ≤ 500 nM
Cc1nc(-c2cc(O)cc3cccc(C(F)(F)F)c23)c(F)c2nc(OC[C@@]34CCCN3C[C@H](F)C4)nc(N3CC4CCC(C3)N4)c12 [Compound 106] = ≤ 500 nM

Documented Kd of CCc1cccc2cc(O)cc(-c3nc(C)c4c(N5CC6CCC(C5)N6)nc(OC[C@@]56CCCN5C[C@H](F)C6)nc4c3C3CC3)c12 [Compound 122] : > 5000 nM

Documented Kd of Fc1cc2c(N3CC4CCC(C3)N4)nc(OCC34CCCN3CCC4)cc2nc1-c1cccc2ccccc12 [Compound 14] : > 5000 nM

Documented Kd of C#Cc1c(F)ccc2cc(O)cc(-c3nc(C)c4c(N5CC6CCC(C5)N6)nc(OC[C@@]56CCCN5C[C@H](F)C6)nc4c3F)c12 [Compound 128] : ≤ 500 nM

* * *

Overview of reported Kd across a group of compounds:
# System under test: recombinant human KRAS^G12D protein (Homo sapiens, UniProt P01116, G12D)
# Procedure summary: Temperature-dependent Fluorescence (TdF) KRAS^G12D protein binding assay
# Run parameters: 6 μM KRAS^G12D Protein, 10 μM compound, Sypro Orange; Kd calculated from fluorescent shift
# Procedure: The TdF assay was conducted in the 96-well-based real-time fluorescence plate reader (ABI 7500 or Roche LightCycler 480). Fluorescent dye Sypro Orange (Sigma) was used to monitor the protein folding-unfolding transition. […] The sample plate was heated from 30° C. to 95° C. with a thermal ramping rate of […], taking a fluorescence reading every 0.4° C. using a CY3 channel matching the excitation and emission wavelengths of Sypro Orange (λ ex 470 nm; λ em 570 nm). […]

A selection of reference data follows.
Fc1cc2c(N3CC4CCC(C3)N4)nc(OCC34CCCN3CCC4)nc2nc1-c1cccc2cccc(Cl)c12 [Compound 7] = > 5 µM
Fc1ccccc1-c1nc2c(-c3cccnc3C3CC3)c(OCC34CCCN3CCC4)nc(N3CC4CCC(C3)N4)c2cc1F [Compound 28] = > 5 µM
Clc1cccc2cccc(-c3ncc4c(N5C6CCC5CNC6)nc(OCC56CCCN5CCC6)cc4n3)c12 [Compound 52] = > 5 µM

Documented Kd of C#Cc1c(F)ccc2cc(O)cc(-c3nc(OC(C)C)c4c(N5CC6CCC(C5)N6)nc(OC[C@@H]5C[C@@H](F)CN5C)nc4c3F)c12 [Compound 197] : ≤ 0.5 µM

Documented Kd of C#Cc1c(F)ccc2cc(O)cc(-c3nc(OC(C)C)c4c(N5CC6CCC(C5)N6)nc(OC[C@@]56CCCN5C[C@H](F)C6)nc4c3F)c12 [Compound 171] : ≤ 0.5 µM

Documented Kd of Cc1nc(-c2cc(C(F)F)cc3cccc(Cl)c23)c(F)c2nc(OC[C@@]34CCCN3C[C@H](F)C4)nc(N3CC4CCC(C3)N4)c12 [Compound 116] : > 5 µM
